# system_name: HLA-A3 (Homo sapiens)
# Sequence (P04439 25-299): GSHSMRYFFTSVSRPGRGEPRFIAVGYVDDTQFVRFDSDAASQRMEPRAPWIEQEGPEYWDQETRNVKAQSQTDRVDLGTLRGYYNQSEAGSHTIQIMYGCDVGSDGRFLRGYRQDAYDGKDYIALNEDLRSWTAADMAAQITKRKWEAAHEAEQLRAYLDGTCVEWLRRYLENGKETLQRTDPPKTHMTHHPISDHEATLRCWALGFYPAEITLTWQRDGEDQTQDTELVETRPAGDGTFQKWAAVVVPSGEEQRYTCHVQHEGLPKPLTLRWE
# Sequence (P61769 21-119, further chain): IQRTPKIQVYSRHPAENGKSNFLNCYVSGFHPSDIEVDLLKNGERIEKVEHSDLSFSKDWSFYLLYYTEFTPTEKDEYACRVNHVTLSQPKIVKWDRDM
# assay_overview: REVEAL binding assay
# run_conditions: score as percentage of the signal generated by the positive control peptide
Where no end group is shown, it is not given here. [ ]: non-standard residue; d: D form. Cit = NC(=O)NCCC[C@H](N)C(=O)O; Nle = CCCC[C@H](N)C(=O)O
Exercise: state measured REVEAL binding score, HLA-type A3 for each of the substances provided.
One number for each entry, in %.

See these solved cases before continuing.
substance	system_name	test_result
VIDTLTCGF	HLA-A3 (Homo sapiens)	2.93
GP[Cit]IGVRAT	HLA-A3 (Homo sapiens)	3.48
GITFSIYLI	HLA-A3 (Homo sapiens)	1.42
DLMGYIPLV	HLA-A3 (Homo sapiens)	4.66
PRLGVRATR	HLA-A3 (Homo sapiens)	3.63

Below are 8 substances. Give each one its REVEAL binding score, HLA-type A3.
1. VIETLTSGF
2. GKVIDTLTC
3. LGRVIETLT
4. KVIDTLTCG
5. L[Nle]GYIPLIG
6. RALAHGVRV
7. GYIPLVGAP
8. GRVIETLTS

// result
1: 2.55; 2: 3.69; 3: 7.40; 4: 4.27; 5: 3.98; 6: 2.51; 7: 3.46; 8: 12.46

----------
Exercise: state measured REVEAL binding score, HLA-type A24 for each of the substances provided.
# Test system: HLA-A24
# assay_overview: REVEAL binding assay
# run_conditions: score as percentage of the signal generated by the positive control peptide
Numbers only, in %.

substance	unit_abbrev	test_result
ATGNLPGCS	%	0.64
GNLPGCSFS	%	1.13
GGQIIGGNY	%	0.39
ADLMGYIPL	%	0.61
MGYIPLVGA	%	0.35

Below are 8 substances. Give each one its REVEAL binding score, HLA-type A24.
1. YATGNLPGC
2. ARALAHGVR
3. YLPAVGAPI
4. GYLPAVGAP
5. LGRVIETLT
6. IIGGNYLIP
7. KVIDTLTCG
8. IVGGVYLLP

// result
1. 1.20
2. 1.15
3. 4.65
4. 0.35
5. 0.97
6. 10.95
7. 0.57
8. 0.30

----------
# system_name: HLA-B7 (Homo sapiens, UniProt P01889)
# Sequence (P61769 21-119): as the sequence (P61769 21-119, further chain) above
# Sequence (P01889 25-299): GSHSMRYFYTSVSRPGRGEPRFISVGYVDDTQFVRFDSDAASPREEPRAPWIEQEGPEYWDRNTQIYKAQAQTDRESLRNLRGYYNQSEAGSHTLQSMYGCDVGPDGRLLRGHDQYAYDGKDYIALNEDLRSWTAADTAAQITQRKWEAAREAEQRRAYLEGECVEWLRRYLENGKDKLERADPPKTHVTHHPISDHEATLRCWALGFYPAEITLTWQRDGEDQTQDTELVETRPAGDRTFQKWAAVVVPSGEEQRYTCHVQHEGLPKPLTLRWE
# assay_overview: REVEAL binding assay
# run_conditions: score as percentage of the signal generated by the positive control peptide
Where no end group is shown, it is not given here. [ ]: non-standard residue; d: D form. Cit = NC(=O)NCCC[C@H](N)C(=O)O; Nle = CCCC[C@H](N)C(=O)O
metric_name: REVEAL binding score, HLA-type B7 (%)
One number for each entry, in %.

See these solved cases before continuing.
substance	REVEAL binding score, HLA-type B7 [%]
P[Cit]IGVRAT[Cit]	1.91
IRVIAHGLR	3.50
IVGGVYLLP	24.16

Below are 2 substances. Give each one its REVEAL binding score, HLA-type B7.
1. GYIPLVGAP
2. QIVGGVYLL

// result
1: 1.37; 2: 28.66

Below are 8 substances. Give each one its REVEAL binding score, HLA-type B7.
1. VGGVYLLPR
2. SRNLGKVID
3. VARALAHGV
4. GGQIVGGVY
5. NLGRVIETL
6. ITFSIYLIV
7. NLPGCSFSI
8. TGNLPGCSF

// result
1.15
1.28
31.59
3.99
1.47
4.32
1.54
2.38

Below are 7 substances. Give each one its REVEAL binding score, HLA-type B7.
1. GKVIDTLTC
2. NYATGNLPG
3. VIDTLTCGF
4. RVIETLTSG
5. [Nle]GYIPLIGA
6. RNLGKVIDT
7. LGKVIDTLT

// result
0.25
0.51
0.45
0.50
1.78
2.42
0.94

Below are 5 substances. Give each one its REVEAL binding score, HLA-type B7.
1. GQIIGGNYL
2. NIPGSTYSL
3. GYLPAVGAP
4. VIETLTSGF
5. IPLVGAPLG

// result
[2.39, 4.80, 3.10, 0.71, 2.34]

Below are 7 substances. Give each one its REVEAL binding score, HLA-type B7.
1. EL[Nle]GYIPLI
2. IIGGNYLIP
3. RVIAHGLRL
4. GP[Cit]IGVRAT
5. MGYIPLVGA
6. TGNIPGSTY
7. KVIDTLTCG

// result
0.68
15.47
102.96
5.38
0.80
1.32
0.57

Below are 7 substances. Give each one its REVEAL binding score, HLA-type B7.
1. DLMGYIPLV
2. VIRVIAHGL
3. LPAVGAPIG
4. YIPLVGAPL
5. LGRVIETLT
6. GNIPGSTYS
7. QIIGGNYLI

// result
[4.84, 29.93, 8.12, 41.87, 2.66, 0.94, 52.04]

Below are 4 substances. Give each one its REVEAL binding score, HLA-type B7.
1. GRVIETLTS
2. TFSIYLIVS
3. ADLMGYIPL
4. GNLPGCSFS

// result
[1.25, 1.28, 0.73, 1.84]

Below are 3 substances. Give each one its REVEAL binding score, HLA-type B7.
1. ATGNLPGCS
2. YLPAVGAPI
3. RNLGRVIET

// result
1. 1.12
2. 7.70
3. 0.71

----------
# Test system: HLA-B14
# assay_overview: REVEAL binding assay
# run_conditions: score as percentage of the signal generated by the positive control peptide
Where no end group is shown, it is not given here. [ ]: non-standard residue; d: D form. Cit = NC(=O)NCCC[C@H](N)C(=O)O
Exercise: state measured REVEAL binding score, HLA-type B14 for each of the substances provided.
Give bare numbers, in %.

See these solved cases before continuing.
substance	unit_abbrev	REVEAL binding score, HLA-type B14
GNLPGCSFS	%	0.81
VARALAHGV	%	0.17
IVGGVYLLP	%	1.65
GKVIDTLTC	%	0.16
RNLGKVIDT	%	0.61
VIDTLTCGF	%	0.11
RVIAHGLRL	%	0.42
VIETLTSGF	%	0.35
P[Cit]IGVRAT[Cit]	%	0.19
LMGYIPLVG	%	0.08

Below are 2 substances. Give each one its REVEAL binding score, HLA-type B14.
1. PRLGVRATR
2. RVIETLTSG

// result
0.14
0.11

Below are 7 substances. Give each one its REVEAL binding score, HLA-type B14.
1. ATGNLPGCS
2. TGNLPGCSF
3. GGQIIGGNY
4. QIIGGNYLI
5. ADLMGYIPL
6. GQIIGGNYL
7. KVIDTLTCG

// result
0.87
0.86
0.25
0.40
0.13
0.22
0.18

Below are 8 substances. Give each one its REVEAL binding score, HLA-type B14.
1. GGQIVGGVY
2. GP[Cit]IGVRAT
3. LGRVIETLT
4. GPRLGVRAT
5. GNIPGSTYS
6. IRVIAHGLR
7. IIGGNYLIP
8. RALAHGVRV

// result
0.32
0.13
0.28
0.94
0.34
0.10
1.17
0.46

----------
# System: HLA-B15
# assay_overview: REVEAL binding assay
# run_conditions: score as percentage of the signal generated by the positive control peptide
Define the label as true when REVEAL binding score, HLA-type B15 is strictly less than 9% and as false in all remaining cases.

These recorded examples may help you get a feel for the data.
substance	cat
RLGVRATRK	false
VIRVIAHGL	false
VIETLTSGF	false
LGRVIETLT	false

// query Hello, is REVEAL binding score, HLA-type B15 of the following substance strictly smaller than 9%? SRNLGKVID
// result false

// query Hello, is REVEAL binding score, HLA-type B15 of the following substance strictly smaller than 9%? IRNLGRVIE
// result true

// query Hello, is REVEAL binding score, HLA-type B15 of the following substance strictly smaller than 9%? NYATGNLPG
// result true

----------
# Test system: HLA-B35
# assay_overview: REVEAL binding assay
# run_conditions: score as percentage of the signal generated by the positive control peptide
Classes (REVEAL binding score, HLA-type B35): bottom range: < 4%; center range: ≥ 4% and < 5%; top range: ≥ 5%

residue_sequence	cat
ITFSIYLIV	top range
TGNLPGCSF	top range
GGQIIGGNY	bottom range
GRVIETLTS	bottom range

// query Please indicate the class for IIGGNYLIP based on its REVEAL binding score, HLA-type B35.
// result top range

// query Please indicate the class for GNLPGCSFS based on its REVEAL binding score, HLA-type B35.
// result center range

// query Please indicate the class for KVIDTLTCG based on its REVEAL binding score, HLA-type B35.
// result bottom range

// query Please indicate the class for NLPGCSFSI based on its REVEAL binding score, HLA-type B35.
// result top range

// query Please indicate the class for GYLPAVGAP based on its REVEAL binding score, HLA-type B35.
// result bottom range

// query Please indicate the class for VARALAHGV based on its REVEAL binding score, HLA-type B35.
// result bottom range

// query Please indicate the class for YIPLVGAPL based on its REVEAL binding score, HLA-type B35.
// result top range

// query Please indicate the class for RLGVRATRK based on its REVEAL binding score, HLA-type B35.
// result bottom range

// query Please indicate the class for NLGKVIDTL based on its REVEAL binding score, HLA-type B35.
// result center range

// query Please indicate the class for YATGNLPGC based on its REVEAL binding score, HLA-type B35.
// result center range
